Tested on: L1210 leukemia ip in BDF1 mice, survival T/C
Assay: NCI In Vivo Anticancer Drug Screen. Data for tumor model L1210 Leukemia (intraperitoneal) in B6D2F1 (BDF1) mice
Settings: endpoint: mean survival time; dose: 200.0 mg/kg/injection; schedule: Q01DX009 (ip); vehicle: saline with Tween-80; higher = longer survival
Inconclusive results and toxic doses are left out.
// reported T/C for each item listed
value-kind: T/C

1. COc1ccc(N(N=O)C(C)C)cc1 | 92 % of control
2. CCOC(=O)c1ccc(NC(=O)Nc2ccc(OC)c([N+](=O)[O-])c2)cc1 | 90 % of control
3. CCCC(C)(COC(N)=O)COC(N)=O | 90 % of control
4. O=Cc1cscc1-c1cscc1C=O | 98 % of control
5. S=C(S)N1CCC(CC2CCN(C(=S)S)CC2)CC1 | 93 % of control
6. O=S(=O)(Cl)c1ccc2cc3ccccc3cc2c1 | 102 % of control

----------
Test system: L1210 leukemia ip in BDF1 mice, survival T/C
Experiment: NCI In Vivo Anticancer Drug Screen. Data for tumor model L1210 Leukemia (intraperitoneal) in B6D2F1 (BDF1) mice
Details: endpoint: mean survival time; dose: 400.0 mg/kg/injection; schedule: Q01DX001 (ip); vehicle: saline; higher = longer survival
Toxic doses and inconclusive results are not listed.
Recorded T/C values for a group of compounds are listed next.
value-kind: T/C

1. CNc1nc(Cl)cc2nc(Cl)cn12 | 96 % of control
2. CCCC/C(=N\OC(=O)N(C)C)c1ccccc1 | 98 % of control
3. COC1C(O)C(CO)OC1n1ccc(N)nc1=O (centres undefined) | 98 % of control
4. O=C(O)c1c[nH]c2c(Cl)cc(Cl)cc2c1=O | 87 % of control
5. COC1OC(CO)C(O)C(NC(=O)NCCCl)C1O (centres undefined) | 103 % of control
6. CCCCOB(OCCCC)c1ccc(B(OCCCC)OCCCC)cc1 | 89 % of control
7. Cc1ccc(C(C)C)c(OC(=O)Nc2ccc(S(=O)(=O)N(C)C)cc2)c1 | 101 % of control
8. C/C=C1/C(=O)O[C@]23C=C[C@@H]4C(C(=O)OC)=CO[C@H](O[C@@H]12)[C@@H]43 | 98 % of control
9. CCC(CC)C(O)(C(=O)O)C(CC)CC | 97 % of control
10. CCOSc1ccc([N+](=O)[O-])cc1[N+](=O)[O-] | 95 % of control
11. OC(c1ccccc1)(c1ccccc1)C1CCCCC1=C(c1ccccc1)c1ccccc1 (centres undefined) | 89 % of control
12. CCOC(=O)CCNC(COCc1ccccc1)C(=O)OCC (centres undefined) | 106 % of control
13. CN(C)C(=S)N(C(=S)N(C)C)c1ccccc1 | 108 % of control
14. CCC(=O)CC(C)(C)C | 100 % of control

----------
Tested on: L1210 leukemia ip in BDF1 mice, survival T/C
Assay: NCI In Vivo Anticancer Drug Screen. Data for tumor model L1210 Leukemia (intraperitoneal) in B6D2F1 (BDF1) mice
Conditions: endpoint: mean survival time; dose: 400.0 mg/kg/injection; schedule: Q01DX009 (ip); vehicle: Klucel (hydroxypropylcellulose) (HPC); higher = longer survival
Method: The antitumor activity of compounds was measured in mice bearing transplantable tumors. Survival or tumor size were measured and the results are expressed as the measurement made in the treated group (T) divided by the measurement made in the vehicle treated control group (C). The tumor model used in this assay is L1210 Leukemia (intraperitoneal) in B6D2F1 (BDF1) mice
Inconclusive results and toxic doses are left out. Peptide text beside a SMILES is read from it. * marks the point of attachment. Cbz = O=C(OCc1ccccc1)*
value-kind: T/C

1) O=C(c1ccccc1)C1C(C(=O)c2ccccc2)N1Cc1ccccc1 (stereo not drawn) | 97 % of control
2) Clc1ccccc1C(c1cccc2ccccc12)n1ccnc1 (stereo not drawn) | 86 % of control
3) NC(=O)c1ccccc1C(N)=O | 93 % of control
4) COCc1cc(C(C)(C)C)c(O)c(C(C)(C)C)c1 | 89 % of control
5) Nc1c(Br)cc(O)c2c1C(=O)c1ccccc1C2=O | 90 % of control
6) COC1=C(NC(C)(C)C)C(=O)C(OC)=C(NC(C)(C)C)C1=O | 106 % of control
7) COc1ccc(OC)c(NC(=O)Nc2cc(C(F)(F)F)ccc2Cl)c1 | 91 % of control
8) O=C(COc1ccc(Cl)cc1)Nc1ccc(Cl)cc1 | 88 % of control
9) CCCCCCCCCCCCCCCCCC(=O)N/N=C\c1ccc(O)c(OC)c1 | 88 % of control
10) S=C(Nc1ccccc1)Nc1cccc2ccccc12 | 112 % of control
11) Cc1cc2oc(/C=N/NC(N)=S)c(C)c2cc1C | 105 % of control
12) CCOc1cc(/C=N/NC(=O)c2ccccc2NC(=O)c2ccccc2)ccc1OC | 101 % of control
13) CNc1ccc(C(=O)NC(CCC(=O)O)C(=O)O)cc1C(F)(F)F (stereo not drawn) | 98 % of control
14) COc1ccc(COC(=O)CN2C(=O)c3ccccc3C2=O)cc1 | 98 % of control
15) COC(=O)c1cc(O)c(C(=O)OC)s1 | 95 % of control
16) O=c1[nH]c2cscc2c(=O)n1OS(=O)(=O)c1ccccc1 | 100 % of control
17) O=C(NC(=S)Nc1ccc(Cl)cc1C(=O)c1ccccc1)c1ccc(Cl)cc1Cl | 94 % of control
18) CCOC(=O)CNC(=O)C(CC(C)C)NC(=O)C1CCCN1C(=O)OCc1ccccc1 (stereo not drawn) (Cbz-Pro-Leu-Gly-OEt; configuration not given here) | 110 % of control
19) O=c1ccccn1CC1(c2ccccc2)OCCO1 | 100 % of control
20) C/C(=N\Nc1nc2ccccc2s1)c1ccncc1 | 101 % of control
21) Cc1ccc(C2NC(=O)c3ccccc3N2)c(C)c1 (stereo not drawn) | 96 % of control
22) C=C(C)c1cc2c(cc1O)OCC2C (stereo not drawn) | 96 % of control
23) Cc1ccc(C)c(OS(=O)(=O)c2ccc([N+](=O)[O-])cc2)c1 | 97 % of control
24) COc1ccc([N+](=O)[O-])cc1NC(=O)Nc1ccc(S(N)(=O)=O)cc1 | 94 % of control
25) O=C(c1ccccc1)C1C2C=CC(C2)C1C(=O)c1ccccc1 (stereo not drawn) | 93 % of control
26) NC(=O)Nc1cccc(C(=O)O)c1 | 87 % of control
27) Cc1ccc(NC(=O)Nc2cccc(F)c2)cc1C | 95 % of control
28) O=COCCc1ccccc1 | 97 % of control
29) CCOC(=O)C(Oc1ccc([N+](=O)[O-])cc1)C(=O)OCC | 96 % of control
30) CCCCCCCCCCCCCCCC(=O)O | 97 % of control
31) CCOC(=O)NC(CC)CO (stereo not drawn) | 108 % of control
32) CC1(C)SC(C)(C)N(C=O)C1C(=O)O (stereo not drawn) | 96 % of control
33) COc1cc(C(Br)C(Br)C(=O)c2ccccc2[N+](=O)[O-])cc(OC)c1OC (stereo not drawn) | 94 % of control

----------
Test system: L1210 leukemia ip in BDF1 mice, survival T/C
Assay: NCI In Vivo Anticancer Drug Screen. Data for tumor model L1210 Leukemia (intraperitoneal) in B6D2F1 (BDF1) mice
Conditions: endpoint: mean survival time; dose: 50.0 mg/kg/injection; schedule: Q01DX001 (ip); vehicle: carboxymethylcellulose (CMC)
Toxic doses and inconclusive results are not listed. Rule as the data show it: active = T/C of 150% or more; inactive = T/C below 125%.
Possible outcomes: active, inactive

1. O=[N+]([O-])c1cccc(/C=N/Nc2nnc(N/N=C/c3cccc([N+](=O)[O-])c3)c3ccccc23)c1 | inactive
2. Nc1nc(-c2ccccc2)c(CCCOc2ccc([N+](=O)[O-])cc2)c(=O)[nH]1 | inactive
3. Clc1ncnc2scnc12 | inactive
4. Cc1c(CNc2ccc(C(=O)NC(CC(=O)O)C(=O)O)cc2)ccc2nc(N)nc(N)c12 (stereo unspecified) | active
5. Nc1cc(Cl)ccc1Nc1ccccc1 | inactive
6. O=C1N(Cl)C(=O)C(c2ccc(Cl)cc2)(c2ccc(Cl)cc2)N1Cl | inactive

----------
The entries below come with measured T/C values attached.
Tested on: L1210 leukemia ip in BDF1 mice, survival T/C
Assay: NCI In Vivo Anticancer Drug Screen. Data for tumor model L1210 Leukemia (intraperitoneal) in B6D2F1 (BDF1) mice
Conditions: endpoint: mean survival time; dose: 100.0 mg/kg/injection; schedule: Q04DX003 (ip); vehicle: Klucel (hydroxypropylcellulose) (HPC); higher = longer survival
Inconclusive results and toxic doses are left out.
value-kind: T/C

1) COC(=O)C(CCSC)NC(=O)CNC(=O)OCc1ccccc1 (stereo unspecified) | 99 % of control
2) COc1ccc(Cl)cc1NC(=O)c1cccc(C(=O)Nc2cc(Cl)ccc2OC)c1 | 94 % of control
3) O=C(Nc1ccccc1F)Sc1c(Cl)c(Cl)nc(Cl)c1Cl | 113 % of control
4) COc1ccc(OC(=O)Nc2ccc(SC)cc2)cc1 | 96 % of control
5) O=C(Nc1ccc(Cl)c(Cl)c1)Nc1ccccc1O | 100 % of control
6) O=C(O)C1C2CCC3C(C(=O)O)C3C21 (stereo unspecified) | 97 % of control
